Molecular target: T1, EsCas13d, nuclease-dead (Eubacterium siraeum, UniProt B0MS50, R295A;H300A;R849A;H854A)
T1 sequence: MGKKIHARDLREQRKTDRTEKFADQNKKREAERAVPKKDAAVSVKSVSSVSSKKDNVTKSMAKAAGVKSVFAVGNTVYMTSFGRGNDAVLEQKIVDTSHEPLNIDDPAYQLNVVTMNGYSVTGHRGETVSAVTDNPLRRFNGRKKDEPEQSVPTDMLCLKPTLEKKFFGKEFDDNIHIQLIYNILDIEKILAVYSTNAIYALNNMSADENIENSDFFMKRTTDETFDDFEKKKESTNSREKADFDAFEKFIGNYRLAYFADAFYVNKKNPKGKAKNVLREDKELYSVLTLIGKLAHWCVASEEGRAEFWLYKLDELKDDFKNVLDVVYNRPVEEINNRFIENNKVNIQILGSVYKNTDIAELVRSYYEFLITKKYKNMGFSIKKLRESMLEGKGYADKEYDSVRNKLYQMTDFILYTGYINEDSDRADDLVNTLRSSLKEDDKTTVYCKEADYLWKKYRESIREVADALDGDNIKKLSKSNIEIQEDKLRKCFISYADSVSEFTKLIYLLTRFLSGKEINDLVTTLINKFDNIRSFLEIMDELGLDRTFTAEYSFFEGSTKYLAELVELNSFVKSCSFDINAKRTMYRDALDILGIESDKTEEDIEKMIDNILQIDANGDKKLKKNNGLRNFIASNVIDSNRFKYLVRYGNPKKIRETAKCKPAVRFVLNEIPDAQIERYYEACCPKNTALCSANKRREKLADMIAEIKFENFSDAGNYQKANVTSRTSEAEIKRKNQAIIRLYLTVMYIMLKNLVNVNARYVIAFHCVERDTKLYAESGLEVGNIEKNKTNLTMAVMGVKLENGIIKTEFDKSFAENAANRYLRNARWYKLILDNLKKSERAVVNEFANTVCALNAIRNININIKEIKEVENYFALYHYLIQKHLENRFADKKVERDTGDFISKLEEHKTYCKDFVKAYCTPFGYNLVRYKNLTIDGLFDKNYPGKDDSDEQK
Experiment: crRNA (strand 1, pre-loaded); Mg2+; 40 mM Tris-HCl pH 7.5, 150 mM NaCl, 6 mM MgCl2, 1 mM DTT, 0.1% Tween-20, 0.2 mg/ml BSA; 25 C; 10 min per concentration, then washed
Conditions: tags: His6-TwinStrep-SUMO cleaved; N-terminal SNAP kept (SNAP-Surface 488); label: 3' end held by stalled T7 RNA polymerase
measured metric: Kd (nM)
Answers are plain numbers, in nM.

{"binder": "target 1 MT 5'PFS GUC 3'PFS UAG (mixed) RNA 1: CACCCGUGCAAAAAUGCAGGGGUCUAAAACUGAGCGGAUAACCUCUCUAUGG RNA 2: GGGAAUGGAUCCACAUCUACGAAUUCGUCCCAUAGAGAGGUUAUCCGCUCAUAGAGAUCGGAAGAGCACACGU", "measured metric": "Kd", "numeric value": 17.6}
{"binder": "target 3 insU 3' of 5,insU 3' of 4 (mixed) RNA 1: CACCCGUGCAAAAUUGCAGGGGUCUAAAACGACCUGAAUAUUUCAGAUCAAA RNA 2: GGGAAUGGAUCCACAUCUACGAAUUCGUUUUUGAUCUGAAAUAUUCAUGUGUCUGCAGAUCGGAAGAGCACACGU", "measured metric": "Kd", "numeric value": 2}
{"binder": "target 2 MT 5'PFS AGG 3'PFS ACC (mixed) RNA 1: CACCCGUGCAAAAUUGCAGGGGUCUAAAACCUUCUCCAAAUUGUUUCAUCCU RNA 2: GGGAAUGGAUCCACAUCUACGAAUUCAGGAGGAUGAAACAAUUUGGAGAAGACCAGAUCGGAAGAGCACACGU", "measured metric": "Kd", "numeric value": 15}

Next, consider the following binder.
Please fill in: Kd reported for target 1 insG 3' of 6,insA 3' of 2 (mixed) RNA 1: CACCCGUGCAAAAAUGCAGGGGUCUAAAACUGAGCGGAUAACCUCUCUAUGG RNA 2: GGGAAUGGAUCCACAUCUACGAAUUCGUACCAUAGAGAGGUUAUCCGGCUCAACCGAGAUCGGAAGAGCACACGU = 12.6
